Where do these numbers come from? They come from patent US11780821B2.

# Subject Of Test: circulating FAPα from human plasma (Homo sapiens, UniProt Q12884)
# Construct: from tissue; host or cells: human plasma (EDTA-K2)
# Assay Remarks: Ex vivo inhibition of circulating FAPα activity from human plasma
# Type: biochemical
# Test Parameters: human plasma; PRXS-AMC substrate; read-out: FAPα activity in human plasma (PRXS-AMC) IC50
pIC50: −log10 of the molar value.
The compounds listed here are annotated with their pIC50.

- Compound: "C=Cc1cnccc1C(=O)NCC(=O)N1CC(F)(F)C[C@H]1C#N [Compound 40]"
  pIC50: "> 6.00"

[in] Give the reported value of pIC50 for this record: N#C[C@@H]1CC(F)(F)CN1C(=O)CNC(=O)c1c[nH]c(=O)c2ccc(F)cc12 [Compound 26]
[out] > 6.00

[in] Consider the compound N#C[C@@H]1CC(F)(F)CN1C(=O)CNC(=O)c1ccncc1-c1ccc(F)cc1 [Compound 52] . State its measured pIC50.
[out] > 6.00

[in] Determine from records and report pIC50 for N#C[C@@H]1CC(F)(F)CN1C(=O)CNC(=O)c1c[nH]c(=O)c(-c2ccccc2)c1 [Compound 14]
[out] > 6.00

[in] Provide measured pIC50 value, entry: N#C[C@@H]1CC(F)(F)CN1C(=O)CNC(=O)c1ccncc1Cc1ccccc1 [Compound 50]
[out] > 6.00

* * *

# Assay Remarks: PK study in hamsters (IV and PO)
# Type: in vivo
# Test Parameters: male, Golden Syrian, plasma; hamster, oral 10 mg/kg
Endpoint Name: AUC(0-t) (ng·h/mL)
Numbers only; they are read as ng·h/mL.

[in] Complete the entry with AUC(0-t) for `N#C[C@@H]1CC(F)(F)CN1C(=O)CNC(=O)c1ccncc1-c1ccccc1`
[out] 350

* * *

# Subject Of Test: recombinant human FAPα (rhFAPα) (Homo sapiens, UniProt Q12884)
# Construct: purchased R&S system (so in the source)
# Sequence (Q12884 1-760): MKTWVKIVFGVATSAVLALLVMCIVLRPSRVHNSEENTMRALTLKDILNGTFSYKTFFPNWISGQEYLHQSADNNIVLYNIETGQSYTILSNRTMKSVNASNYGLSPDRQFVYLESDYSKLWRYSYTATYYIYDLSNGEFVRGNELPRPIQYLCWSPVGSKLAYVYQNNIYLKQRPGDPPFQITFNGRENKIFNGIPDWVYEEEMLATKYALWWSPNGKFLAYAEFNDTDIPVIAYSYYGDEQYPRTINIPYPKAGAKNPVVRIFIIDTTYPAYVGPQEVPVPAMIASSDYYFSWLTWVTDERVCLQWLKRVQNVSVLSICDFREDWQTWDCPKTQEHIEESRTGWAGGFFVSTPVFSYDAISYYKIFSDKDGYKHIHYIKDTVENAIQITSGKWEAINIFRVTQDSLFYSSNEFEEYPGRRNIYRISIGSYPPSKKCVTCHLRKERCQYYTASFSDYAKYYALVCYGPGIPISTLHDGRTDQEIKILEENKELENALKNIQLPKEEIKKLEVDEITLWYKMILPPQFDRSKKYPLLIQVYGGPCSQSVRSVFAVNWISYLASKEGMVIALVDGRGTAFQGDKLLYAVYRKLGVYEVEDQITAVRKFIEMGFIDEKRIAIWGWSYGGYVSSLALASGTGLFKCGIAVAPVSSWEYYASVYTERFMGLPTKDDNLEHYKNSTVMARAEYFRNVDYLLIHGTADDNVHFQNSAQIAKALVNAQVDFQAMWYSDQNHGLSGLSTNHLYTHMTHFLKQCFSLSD
# Assay Remarks: FAPα enzymatic exopeptidase (dipeptidase) activity assay
# Type: biochemical
# Test Parameters: 1 μM test compound; Z-Gly-Pro-AMC substrate; read-out: rhFAPα (% exo inh @ 1 μM)
Endpoint Name: inhibition at 1 µM

Below are worked cases with known answers.
- Molecule: "N#C[C@@H]1CC(F)(F)CN1C(=O)CNC(=O)c1ccncc1NC1CCNCC1"
  inhibition at 1 µM: "> 50%"
- Molecule: "N#C[C@@H]1CC(F)(F)CN1C(=O)CNC(=O)c1ccc2[nH]ncc2c1"
  inhibition at 1 µM: "25 to 50%"
- Molecule: "N#C[C@@H]1CC(F)(F)CN1C(=O)CNC(=O)c1ccncc1-c1ccc(Cl)c(F)c1"
  inhibition at 1 µM: "> 50%"
- Molecule: "COc1cnccc1C(=O)NCC(=O)N1CC(F)(F)C[C@H]1C#N"
  inhibition at 1 µM: "> 50%"

[in] Please report the measured inhibition at 1 µM for `CCN1C(=O)CC[C@@H](C(=O)NCC(=O)N2CC(F)(F)C[C@H]2C#N)[C@@H]1c1ccccc1`
[out] 25 to 50%

[in] Read off the recorded inhibition at 1 µM for `N#C[C@@H]1CC(F)(F)CN1C(=O)CCCNC(=O)c1c[nH]c(=O)c2ccccc12`
[out] < 25%

[in] Complete the entry with inhibition at 1 µM for `N#C[C@@H]1CC(F)(F)CN1C(=O)CNC(=O)c1c[nH]c(=O)c(-c2ccccc2)c1`
[out] > 50%

[in] Return value of inhibition at 1 µM for input `N#C[C@@H]1CC(F)(F)CN1C(=O)CNC(=O)c1ccn2nccc2c1` , no commentary.
[out] > 50%

* * *

# Subject Of Test: mouse plasma DPPIV (Mus musculus)
# Sequence (P28843 37-760 limits assumed): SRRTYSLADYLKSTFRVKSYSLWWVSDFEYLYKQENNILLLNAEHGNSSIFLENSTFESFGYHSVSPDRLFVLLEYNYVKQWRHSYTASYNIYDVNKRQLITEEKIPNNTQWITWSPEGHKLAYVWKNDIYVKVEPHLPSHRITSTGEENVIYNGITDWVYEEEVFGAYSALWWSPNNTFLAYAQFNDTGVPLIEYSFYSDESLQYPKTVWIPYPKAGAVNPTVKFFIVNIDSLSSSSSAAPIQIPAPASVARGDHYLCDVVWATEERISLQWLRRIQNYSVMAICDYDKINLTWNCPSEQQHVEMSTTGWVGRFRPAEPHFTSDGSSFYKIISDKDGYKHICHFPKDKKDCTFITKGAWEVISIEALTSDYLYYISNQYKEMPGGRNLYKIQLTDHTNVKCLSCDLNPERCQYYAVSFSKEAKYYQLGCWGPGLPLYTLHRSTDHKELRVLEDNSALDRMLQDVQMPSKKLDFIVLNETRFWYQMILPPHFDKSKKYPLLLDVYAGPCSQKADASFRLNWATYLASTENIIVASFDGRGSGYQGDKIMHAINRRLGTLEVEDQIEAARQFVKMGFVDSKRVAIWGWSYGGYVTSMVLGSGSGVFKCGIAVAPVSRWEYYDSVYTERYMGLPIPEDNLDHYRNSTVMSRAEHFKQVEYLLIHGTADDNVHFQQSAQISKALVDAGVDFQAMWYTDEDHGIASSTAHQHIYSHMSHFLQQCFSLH
# Assay Remarks: DPPIV enzymatic activity in mouse plasma
# Test Parameters: C57BL/6 mouse plasma; H-Gly-Pro-AMC substrate
Endpoint Name: IC50

- Molecule: "N#C[C@@H]1CC(F)(F)CN1C(=O)CNC(=O)c1ccncc1N1CCOCC1 [Compound 88]"
  IC50: "1 to 10 µM"
- Molecule: "N#C[C@@H]1CC(F)(F)CN1C(=O)CNC(=O)c1ccncc1C1CC1 [Compound 24]"
  IC50: "> 10 µM"
- Molecule: "N#C[C@@H]1CC(F)(F)CN1C(=O)CNC(=O)c1ccncc1C1=CCNCC1 [Compound 105, 2,2,2-trifluoroacetate]"
  IC50: "> 10 µM"
- Molecule: "N#C[C@@H]1CC(F)(F)CN1C(=O)CNC(=O)c1c[nH]c(=O)c2ccc(F)cc12 [Compound 26]"
  IC50: "< 1 µM"
- Molecule: "N#C[C@@H]1CC(F)(F)CN1C(=O)CNC(=O)c1c[nH]c(=O)c(-c2ccccc2)c1 [Compound 14]"
  IC50: "1 to 10 µM"
- Molecule: "N#C[C@@H]1CC(F)(F)CN1C(=O)CNC(=O)c1ccncc1-c1cc(Cl)ccc1F [Compound 54]"
  IC50: "> 10 µM"
- Molecule: "N#C[C@@H]1CC(F)(F)CN1C(=O)CNC(=O)c1ccncc1-c1ccc(F)cc1 [Compound 52]"
  IC50: "> 10 µM"
- Molecule: "N#C[C@@H]1CC(F)(F)CN1C(=O)CNC(=O)c1ccncc1-c1ccc(Cl)c(F)c1 [Compound 111]"
  IC50: "1 to 10 µM"
- Molecule: "N#C[C@@H]1CC(F)(F)CN1C(=O)CNC(=O)c1c[nH]c(=O)c2ccccc12 [Example 1]"
  IC50: "< 1 µM"
- Molecule: "C=Cc1cnccc1C(=O)NCC(=O)N1CC(F)(F)C[C@H]1C#N [Compound 40]"
  IC50: "> 10 µM"

[in] Output IC50 of N#CC1CC(F)(F)CN1C(=O)CNC(=O)c1ccnc2ccccc12 (centres unmarked) [Ref. Comp., reference compound]
[out] > 10 µM

[in] Please look at this molecule and report its IC50: C=C(c1ccccc1)c1cnccc1C(=O)NCC(=O)N1CC(F)(F)C[C@H]1C#N [Compound 122]
[out] > 10 µM

[in] # return recorded IC50 for entry Cn1ncc2c(-c3cnccc3C(=O)NCC(=O)N3CC(F)(F)C[C@H]3C#N)cccc21 [Compound 87]
[out] 1 to 10 µM

[in] Let me know recorded IC50 for N#C[C@@H]1CC(F)(F)CN1C(=O)CNC(=O)c1c[nH]c(=O)cc1-c1ccc(F)cc1 [Compound 109] , thanks.
[out] 1 to 10 µM

* * *

Overview of reported IC50 across a group of compounds:
# Subject Of Test: recombinant mouse PREP (rmPREP) (Mus musculus)
# Sequence (Q9QUR6 whole entry): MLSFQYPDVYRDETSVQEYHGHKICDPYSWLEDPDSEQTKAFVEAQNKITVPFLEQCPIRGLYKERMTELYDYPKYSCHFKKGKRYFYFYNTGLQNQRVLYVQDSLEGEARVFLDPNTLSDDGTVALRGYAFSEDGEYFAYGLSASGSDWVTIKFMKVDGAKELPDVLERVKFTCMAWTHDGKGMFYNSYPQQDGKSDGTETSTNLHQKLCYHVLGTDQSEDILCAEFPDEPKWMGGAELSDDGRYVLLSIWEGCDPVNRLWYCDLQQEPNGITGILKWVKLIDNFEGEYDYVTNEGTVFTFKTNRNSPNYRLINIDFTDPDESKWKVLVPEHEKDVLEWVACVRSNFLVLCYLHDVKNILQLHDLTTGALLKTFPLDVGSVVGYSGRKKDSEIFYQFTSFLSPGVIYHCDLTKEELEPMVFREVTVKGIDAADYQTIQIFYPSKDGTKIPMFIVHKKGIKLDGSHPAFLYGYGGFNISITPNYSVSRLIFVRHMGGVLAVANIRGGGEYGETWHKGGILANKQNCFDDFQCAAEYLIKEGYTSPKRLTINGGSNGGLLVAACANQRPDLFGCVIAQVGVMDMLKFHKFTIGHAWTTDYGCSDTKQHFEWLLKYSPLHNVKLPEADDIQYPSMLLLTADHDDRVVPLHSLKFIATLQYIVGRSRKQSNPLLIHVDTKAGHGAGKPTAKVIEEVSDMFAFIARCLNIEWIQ
# Assay Remarks: PREP enzymatic activity assay
# Test Parameters: Z-Gly-Pro-AMC substrate

Take a look at these entries with their results.
- Compound: "N#CC1CC(F)(F)CN1C(=O)CNC(=O)c1ccnc2ccccc12 (stereo not shown) [Ref. Comp., reference compound]"
  Subject Of Test: "recombinant mouse PREP (rmPREP) (Mus musculus)"
  Endpoint Name: "IC50"
  Value Measured: "> 10 µM"
- Compound: "N#C[C@@H]1CC(F)(F)CN1C(=O)CNC(=O)c1c[nH]c(=O)c2ccccc12"
  Subject Of Test: "recombinant mouse PREP (rmPREP) (Mus musculus)"
  Endpoint Name: "IC50"
  Value Measured: "1 to 10 µM"
- Compound: "Cn1cc(C(=O)NCC(=O)N2CC(F)(F)C[C@H]2C#N)c2ccccc2c1=O"
  Subject Of Test: "recombinant mouse PREP (rmPREP) (Mus musculus)"
  Endpoint Name: "IC50"
  Value Measured: "< 1 µM"

// moving on: another record for IC50
[in] Specify IC50 for `N#C[C@@H]1CC(F)(F)CN1C(=O)CNC(=O)c1c[nH]c(=O)c(-c2ccccc2)c1` and stop.
[out] > 10 µM
